- Test system: KM12
- ASSAY_NAME: NCI tumour cell line growth inhibition, 48 h
The source made the active and inactive calls. No stated cut-off is given here; in the data, active = GI50 up to about 1.1 µM and inactive = higher.
MEASURED_PARAMETER: GI50

Previously resolved entries follow.
# COMPOUND, MEASURED_PARAMETER, OBS_VALUE
records = [
    ("O=C1Nc2ccccc2C(=O)/C1=C/NC(=S)NCCc1ccccc1", "GI50", "55.3 µM (inactive)"),
    ("C=CC(C)CCC(C/C=C(\\C)CCCC(C)C)C(=C)CCCC(C)C (centres undefined)", "GI50", "> 100 µM (inactive)"),
    ("NC(=O)c1cc([N+](=O)[O-])cc([N+](=O)[O-])c1 [NITROMIDE]", "GI50", "> 100 µM (inactive)"),
    ("COc1ccc(N2C(=O)[C@@H]3[C@H](C2=O)c2[nH]c4ccccc4c2C2CCC(C(C)(C)C)C[C@@H]23)cc1 (some centres undefined)", "GI50", "38.7 µM (inactive)"),
    ("O=C(CCCN1CCC(O)(c2ccc(Cl)cc2)CC1)c1ccc(F)cc1 [HALOPERIDOL]", "GI50", "18.6 µM (inactive)"),
    ("COC(=O)C(=O)Nc1cc2c3c(c1)Oc1cccc4c1C3(C)c1c(cccc1O2)O4", "GI50", "> 100 µM (inactive)"),
]

Below are 3 compounds. Give each one its GI50.
1. O=S(=O)(N/N=C1\CC2CCC1C2)c1ccccc1 (centres undefined)
2. CC(=O)NC1C(OCc2ccccc2)OC(COC(=O)CCCCCCCCCCNc2ccc([N+](=O)[O-])c3[nH]c4ccccc4c(=O)c23)C(O)C1OC(C)C(=O)NC(C)C(=O)NC(CCC(N)=O)C(=O)OCc1ccccc1 (centres undefined)
3. Clc1ccc(OCc2nnc3sc(-c4ccc(-c5ccc(Cl)cc5Cl)o4)nn23)c(Cl)c1

Result:
1: > 100 µM (inactive); 2: > 100 µM (inactive); 3: 32.6 µM (inactive)

----------
- Tested on: OVCAR-8
- ASSAY_NAME: NCI tumour cell line growth inhibition, 48 h
Where a name gives a salt, the structure may show the parent alone. Active and inactive are the calls of the source. No stated cut-off is given here; in the data, active = GI50 up to about 1.1 µM and inactive = higher.
API: response.call in active, inactive

Worked cases, answers included:
# COMPOUND, ASSIGNED_CATEGORY
data = [
    ("OCC1OC(n2cnc3c2NC=NC[C@H]3O)C(O)C1O (some centres not stated)", "inactive"),
    ("COC(=O)CCC(NC(=S)N/N=C(\\C)c1nccs1)C(=O)OC (configuration not stated)", "inactive"),
    ("CN(c1ccc(Cl)cc1)S(=O)(=O)c1ccc([N+](=O)[O-])cc1", "inactive"),
    ("CCCN(CCCCC(NC(C)=O)C(=O)NCc1ccccc1)C(=O)N(C)N=O (configuration not stated)", "inactive"),
]

Q: // return assay outcome for O=C(CC1Sc2ccccc2NC1=O)Nc1ccc(Cl)cc1 (configuration not stated)
Result: inactive

Q: // return assay outcome for CN(C)c1cccc(/C=C(\C#N)c2ccccc2)c1
Result: active

Q: // return assay outcome for NC(=S)NNC(=O)CCC(=O)Nc1ccc(Cl)cc1Cl
Result: inactive

Q: // return assay outcome for CCOC(=O)c1c(-c2ccc(OC)cc2)c(C#N)c(=S)n(C2OC(COC(C)=O)C(OC(C)=O)C(OC(C)=O)C2OC(C)=O)c1C (configuration not stated)
Result: inactive

Q: // return assay outcome for Cc1ccnn1CCc1ccc(Cl)cc1Cl
Result: inactive

Q: // return assay outcome for O=C(Cc1nc2ccccc2s1)C(=O)Nc1cccc(C(F)(F)F)c1
Result: inactive

Q: // return assay outcome for O=C(Nc1ccc(S(=O)(=O)Nc2ncccn2)cc1)c1c2ccccc2nc2ccccc12
Result: inactive

Q: // return assay outcome for CC(=O)NNc1nc(C)c(C(/C=C/c2ccc(Cl)cc2)=N\NS(=O)(=O)c2ccc(C)cc2)s1
Result: inactive

Q: // return assay outcome for C=CCN1C(=O)CC1N(CC=C)S(=O)(=O)c1ccc(C)cc1 (configuration not stated)
Result: inactive

Q: // return assay outcome for CCOC(=O)/C(SC#N)=C(/N)N1CCCC1
Result: inactive

Q: // return assay outcome for Cc1c(S(=O)(=O)c2ccccc2)c(N)n(CCN(C)C)c1C
Result: inactive

Q: // return assay outcome for CCC1(C)C=Cc2c(cc(OC)c3c(=O)c4ccccc4n(C)c23)O1 (configuration not stated)
Result: inactive

Q: // return assay outcome for CC(CN1c2ccccc2Sc2ccccc21)N(C)C (configuration not stated) [PROMETHAZINE HYDROCHLORIDE]
Result: inactive

Q: // return assay outcome for CCOP(C)(=O)C(Cc1c[nH]c2ccccc12)C(=O)O (configuration not stated)
Result: inactive

Q: // return assay outcome for CN(C)/N=N/c1ccc(NC=O)cc1
Result: inactive

Q: // return assay outcome for Cc1nnc2nc(-c3ccc(Cl)cc3Cl)cc(-c3ccc(Cl)cc3)n12
Result: inactive

Q: // return assay outcome for Cc1cc2nc3c(C#N)c4c(c(Nc5ccc(Cl)cc5)n3c2cc1C)CCC4
Result: inactive

Q: // return assay outcome for Cc1cc(C)n(-c2nc3ccccc3c(=O)n2-c2ccccc2)n1
Result: inactive

----------
Exercise: state measured GI50 for each of the compounds provided.
- Test system: SF-295
- ASSAY_NAME: NCI tumour cell line growth inhibition, 48 h
The source made the active and inactive calls. Rule as the data show it: active = GI50 up to about 1.1 µM and inactive = higher.

Previously resolved entries follow.
# COMPOUND, MEASURED_TARGET, GI50
data = [
    ("CC1=C(C(=O)CC(=O)C(=O)Nc2cccc(Cl)c2C)Sc2ccccc2N1", "SF-295", "> 100 µM (inactive)"),
    ("Cc1cc2c(C(C)C)c(O)c(O)c(C=O)c2c(O)c1-c1c(C)cc2c(C(C)C)c(O)c(O)c(C=O)c2c1O", "SF-295", "2.37 µM (inactive)"),
    ("CCCCCCCCCCCCCCCCCc1nc(Cl)nc(Cl)c1Cl", "SF-295", "> 100 µM (inactive)"),
    ("COC(=O)CCC1(CCC(=O)OC)CCCCCCC(CCC(=O)OC)(CCC(=O)OC)C(=O)C1=O", "SF-295", "> 100 µM (inactive)"),
    ("CC(=NNC(=S)Nc1ccccc1C)c1cccc(C(C)=NNC(=S)Nc2ccccc2C)n1", "SF-295", "8.93 µM (inactive)"),
]

Below are 3 compounds. Give each one its GI50.
1. O=C(O)C(Cc1cccs1)NC(=O)C(F)(F)F (stereo not given)
2. N#Cc1nc(COCCOCc2ccc(F)cc2)oc1N
3. CN1Cc2cc3c(cc2-c2ccccc21)OCO3

Result:
["> 100 µM (inactive)", "> 100 µM (inactive)", "> 100 µM (inactive)"]

Below are 2 compounds. Give each one its GI50.
1. CC(=O)[C@H]1CC[C@@H]2[C@]1(C)CC=C1[C@]23C=C[C@]2(C[C@@H](O)CC[C@]12C)C(C(=O)O)C3C(=O)O (stereo not given in full)
2. CSC1(SC2=NCCN2)SC2(NCCN2)S1

Result:
["> 100 µM (inactive)", "27.8 µM (inactive)"]

----------
Exercise: state measured GI50 for each of the compounds provided.
- System: BT-549
- ASSAY_NAME: NCI tumour cell line growth inhibition, 48 h
The source made the active and inactive calls. Cut-off read from the data, not from the text of the source: active = GI50 up to about 1.1 µM and inactive = higher.

Previously resolved entries follow.
# COMPOUND, MEASURED_TARGET, GI50
measured = [
    ("CCOP(C)(=O)C(Cc1c[nH]c2ccccc12)C(=O)O (stereo not drawn)", "BT-549", "> 100 µM (inactive)"),
    ("O=S(=O)(O)c1ccc2c(/N=N/c3cccc4ccccc34)c(O)c(S(=O)(=O)O)cc2c1", "BT-549", "> 100 µM (inactive)"),
]

Q: Let me know recorded GI50 for O=C(Cc1ccccc1)Nc1nc2ccc(Cl)cc2c2nc(-c3ccco3)nn12 , thanks.
Result: > 100 µM (inactive)

----------
Exercise: state measured GI50 for each of the compounds provided.
- Tested on: DMS-273
- ASSAY_NAME: NCI tumour cell line growth inhibition, 48 h
Active and inactive are the calls of the source. Cut-off read from the data, not from the text of the source: active = GI50 up to about 1.1 µM and inactive = higher.

Previously resolved entries follow.
# COMPOUND, MEASURED_TARGET, GI50
data = [
    ("COc1ccc(N2C(=O)[C@@H]3[C@H](C2=O)c2[nH]c4ccccc4c2C2CCC(C(C)(C)C)C[C@@H]23)cc1 (some centres not stated)", "DMS-273", "41.8 µM (inactive)"),
    ("NC(=O)c1cc([N+](=O)[O-])cc([N+](=O)[O-])c1 [NITROMIDE]", "DMS-273", "> 100 µM (inactive)"),
    ("COc1cc(C(=C2SCCS2)c2nccc3cc(OC)c(OC)cc23)c([N+](=O)[O-])cc1OC", "DMS-273", "34.4 µM (inactive)"),
    ("CC(CN1CCN(CC(C)Nc2ccnc3cc(Cl)ccc23)CC1)Nc1ccnc2cc(Cl)ccc12 (configuration not stated)", "DMS-273", "16.3 µM (inactive)"),
    ("O=C(c1ccccc1)c1c(CC(O)c2ccccc2)n(C(=O)c2ccccc2)c2ccccc12 (configuration not stated)", "DMS-273", "43 µM (inactive)"),
]

Below are 3 compounds. Give each one its GI50.
1. COc1cc(-c2cc(O)c3cc4c(cc3n2)OCO4)cc(OC)c1OC
2. O=C(CC1Sc2ccccc2NC1=O)Nc1ccc(Cl)cc1 (configuration not stated)
3. COc1ccc(N(CC(=O)O)S(=O)(=O)c2ccccc2)cc1

Result:
1. 46.2 µM (inactive)
2. 83.4 µM (inactive)
3. > 100 µM (inactive)

Below are 4 compounds. Give each one its GI50.
1. Nc1ncnc2c1nc(Cl)n2[C@@H]1O[C@@H]2COP(=O)(O)O[C@H]2[C@H]1O [TOCLADESINE]
2. COc1ccc(C(=O)C(C(=O)C(=O)NC2C3CC4CC(C3)CC2C4)c2ccc(OC)cc2)cc1 (configuration not stated)
3. CCOC(=O)CCc1c(C)c2c(OC)cc(OC)cc2oc1=O
4. N#CC(C#N)=Cc1ccc(Oc2ccccc2)cc1

Result:
3.15 µM (inactive)
> 100 µM (inactive)
41.8 µM (inactive)
18.3 µM (inactive)
